# Method: BET inhibitor-based combinations targeting novel dependencies in MECOM-rearranged (r) AML: OCI-AML3 cell line (AID 2202232); also: nearly all actives have a fitted effect of over 35% in size
# Experimental setup: CellTiter-Glo luminescence, 48 h; OCI-AML3 viability; series mostly up to 46 µM
Records with an inconclusive call do not appear. Active and inactive are the calls of the source. Calls follow the shape of the dose curve; as a rule, active = well fitted inhibition curve with a large enough effect; inconclusive = small, poorly fitted or top-dose-only effect; inactive = no such curve, though single readings can be large or run the other way.
Give one outcome, nothing more. List: active, inactive

Qu. Which outcome was entered for the compound CC(C)c1cc(C(=O)N2Cc3ccc(CN4CCN(C)CC4)cc3C2)c(O)cc1O in this test?
Ans. active

Qu. Which outcome was entered for the compound Cc1cc(Nc2ncc3c(n2)N(C)C(=O)N(c2cc(NC(=O)c4cccc(C(F)(F)F)c4)ccc2C)C3)n(C)n1 in this test?
Ans. active

Qu. Which outcome was entered for the compound O=c1c(O)c(-c2cc(O)c(O)c(O)c2)oc2cc(O)cc(O)c12 in this test?
Ans. inactive

Qu. Which outcome was entered for the compound Cc1ccc(NC(=O)Nc2cc(C(F)(F)F)ccc2F)cc1Nc1ccc2c(c1)NC(=O)/C2=C\c1ccc[nH]1 in this test?
Ans. active

Qu. Which outcome was entered for the compound CN(C)C1CCN(C(=O)c2ccc(NC(=O)Nc3ccc(-c4nc(N5CCOCC5)nc(N5CCOCC5)n4)cc3)cc2)CC1 in this test?
Ans. active

Qu. Which outcome was entered for the compound N#CC1(c2ccc(NC(=O)c3cccnc3NCc3ccncc3)cc2)CCCC1 in this test?
Ans. inactive

Qu. Which outcome was entered for the compound Nc1ncnc2c1ncn2[C@@H]1O[C@H](CO)[C@@H](O)[C@@H]1O in this test?
Ans. inactive

Qu. Which outcome was entered for the compound Nc1nc(-c2nn(Cc3ccccc3F)c3ncccc23)nc(N)c1N1CCOCC1 in this test?
Ans. active

Qu. Which outcome was entered for the compound CN1CCN(c2ccc(OC(F)(F)F)c(Nc3ncc4c(n3)-c3c(c(C(N)=O)nn3CCO)CC4)c2)CC1 in this test?
Ans. active

Qu. Which outcome was entered for the compound CCOc1cc(C(=O)N2CCC(N3CCN(C)CC3)CC2)ccc1Nc1ncc2c(n1)N(C1CCCC1)c1ccccc1C(=O)N2C in this test?
Ans. active

Qu. Which outcome was entered for the compound Cc1ccsc1C(=CCCN1CCC[C@@H](C(=O)O)C1)c1sccc1C in this test?
Ans. active

Qu. Which outcome was entered for the compound C[C@@]1(c2cc(-c3cncnc3)c(F)cc2F)CCSC(N)=N1 in this test?
Ans. inactive

Qu. Which outcome was entered for the compound C[C@](Cc1c[nH]c2ccccc12)(NC(=O)OC1C2CC3CC(C2)CC1C3)C(=O)NC[C@H](NC(=O)CCC(=O)O)c1ccccc1 (stereo partly drawn) in this test?
Ans. inactive

Qu. Which outcome was entered for the compound Cc1c(NC(=O)c2cc3c(s2)CCCC3)cccc1-c1cn(C)c(=O)c(Nc2ccc(C3C(=O)N(C)CCN3C)cc2)n1 (stereo not drawn) in this test?
Ans. active

Qu. Which outcome was entered for the compound O=C(CCCc1ccc2cccnc2n1)NCc1cc(-c2ccc(F)c(C(F)(F)F)c2)no1 in this test?
Ans. inactive

Qu. Which outcome was entered for the compound COC1CCC(N(C(=O)C2CCC(C)CC2)c2cc(C3=CCCCC3)sc2C(=O)O)CC1 (stereo not drawn) in this test?
Ans. inactive

Qu. Which outcome was entered for the compound Cc1ccccc1N1C(=O)c2cc(S(N)(=O)=O)c(Cl)cc2NC1C (stereo not drawn) in this test?
Ans. inactive

Qu. Which outcome was entered for the compound CCN(CC)CCOc1ccc(Nc2ncc3cc(-c4c(Cl)cccc4Cl)c(=O)n(C)c3n2)cc1 in this test?
Ans. active

----------
# Method: BET inhibitor-based combinations targeting novel dependencies in MECOM-rearranged (r) AML: SET-2 cell line (AID 2202231); also: potency is read from the fitted curve at half-maximal effect; nearly all actives have a fitted effect of over 35% in size
# Experimental setup: SET-2 AML cells viability, CellTiter-Glo luminescence, 48 h
Inconclusive results are not listed. The source made the active and inactive calls. Calls follow the shape of the dose curve; as a rule, active = well fitted inhibition curve with a large enough effect; inconclusive = small, poorly fitted or top-dose-only effect; inactive = no such curve, though single readings can be large or run the other way.
Quantity measured: Potency

See these solved cases before continuing.
1) CN(C)C(=O)c1ccc(S(=O)(=O)c2ccc(NC(=O)[C@@](C)(O)C(F)(F)F)c(Cl)c2)cc1    7.42 µM (active)
2) O=C(NC1CCNCC1)c1[nH]ncc1NC(=O)c1c(Cl)cccc1Cl    11.8 µM (active)
3) COc1ccc(F)c(F)c1C(=O)c1cnc(NC2CCN(S(C)(=O)=O)CC2)nc1N    2.09 µM (active)
4) Cc1cnc(Nc2ccc(N3CCN(C)CC3)cc2)nc1Nc1cccc(S(=O)(=O)NC(C)(C)C)c1    2.63 µM (active)
5) Cc1cn(CCN2CCN(c3ccccc3-c3cc(C#N)cc(C(=O)NCCCN4CCCC4)c3)CC2)c2ccccc12    23.5 µM (active)
6) COc1cccc(OCCCN)c1-c1cc(Nc2cnc(C#N)cn2)n[nH]1    0.059 µM (active)
7) COC(=O)Nc1cc(Nc2cc(NC3CC3)c3ncc(C#N)n3n2)c(Cl)c(N2CCN(C)CC2)c1    2.95 µM (active)
8) Cc1cc(-c2ncc(CC(=O)Nc3ccc(-c4cnccn4)cn3)cc2C)ccn1    11.8 µM (active)

With those in mind, consider the next molecule.
Note to self: Potency recorded for Cc1cnc(Nc2ccc(OCCN3CCCC3)cc2)nc1Nc1cccc(S(=O)(=O)NC(C)(C)C)c1 was 4.68 µM (active)

----------
# Method: BET inhibitor-based combinations targeting novel dependencies in MECOM-rearranged (r) AML: UCSD-AML1 cell line (AID 2202235); also: nearly all actives have a fitted effect of over 40% in size; also: potency is read from the fitted curve at half-maximal effect
# Experimental setup: UCSD-AML1 AML cells viability, CellTiter-Glo, 48 h; series mostly up to 46 µM
Records with an inconclusive call do not appear. The source made the active and inactive calls. Calls follow the shape of the dose curve; as a rule, active = well fitted inhibition curve with a large enough effect; inconclusive = small, poorly fitted or top-dose-only effect; inactive = no such curve, though single readings can be large or run the other way.
Quantity measured: Potency

See these solved cases before continuing.
1. CC(C)c1ccccc1Cc1cc(C(=O)Nc2ccc(S(=O)(=O)c3ccccc3C(C)(C)C)cc2)c(O)c(O)c1O    10500 nM (active)
2. Cn1cc(-c2ccc3nnc(Sc4ccc5ncccc5c4)n3n2)cn1    inactive
3. Cc1[nH]c(=O)c(C#N)cc1-c1ccc2nccn2c1    inactive
4. CNC(=O)c1ccc(N2C(=S)N(c3cnc(C#N)c(C(F)(F)F)c3)C(=O)C23CCC3)cc1F    inactive
5. CN1CC[C@@H](NC(=O)Nc2ccc(C#N)cc2)C[C@@H]1c1nc2ccccc2[nH]1    inactive
6. Cc1nc(C(=O)NCC(=O)O)c(O)c2ccc(Oc3ccccc3)cc12    inactive

Note to self: Potency recorded for CCCCCCCCCCCCc1ccc(S(=O)(=O)Nc2nncs2)cc1 was inactive

Note to self: Potency recorded for COc1cc(N2CCC(N(C)C)CC2)ccc1Nc1ncc(Cl)c(Nc2ccccc2P(C)(C)=O)n1 was 2630 nM (active)

Note to self: Potency recorded for Cc1ccnc(NS(=O)(=O)c2ccc(NC(=O)Nc3ccc(S(=O)(=O)Nc4nccc(C)n4)cc3)cc2)n1 was inactive

Note to self: Potency recorded for C[C@@H](Oc1cc(-n2cnc3ccc(CN4CCN(C)CC4)cc32)sc1C(N)=O)c1ccccc1C(F)(F)F was 118 nM (active)

Note to self: Potency recorded for CN(C)CCC=C1c2ccccc2C=Cc2ccccc21 was inactive

Note to self: Potency recorded for CCN1CCC(n2cc(CNc3cc(Cl)c4ncc(C#N)c(Nc5ccc(F)c(Cl)c5)c4c3)nn2)CC1 was inactive

----------
# Method: BET inhibitor-based combinations targeting novel dependencies in MECOM-rearranged (r) AML: MV-4-11 cell line (AID 2202233); also: nearly all actives have a fitted effect of over 45% in size
# Experimental setup: MV-4-11 AML viability, CellTiter-Glo luminescence, 48 h; series mostly up to 46 µM
Results filed as inconclusive are left out. The source made the active and inactive calls. Calls follow the shape of the dose curve; as a rule, active = well fitted inhibition curve with a large enough effect; inconclusive = small, poorly fitted or top-dose-only effect; inactive = no such curve, though single readings can be large or run the other way.
Give one outcome, nothing more. List: active, inactive

Study these solved cases before continuing.
1) O=c1c(O)c(-c2ccc(O)c(O)c2)oc2cc(O)ccc12    active
2) CC(C)[C@H](CO)Nc1nc(Nc2cccc(Cl)c2)c2ncn(C(C)C)c2n1    active
3) COc1cc([C@@H]2c3cc4c(cc3[C@H](O)[C@H]3COC(=O)[C@H]23)OCO4)cc(OC)c1OC    active
4) Cc1ccc(C(=O)c2cc(O)c(O)c([N+](=O)[O-])c2)cc1    inactive

We now examine a further molecule.
Qu. Which outcome was entered for the molecule CCNCc1nc2c(N)nc3ccccc3c2n1CC(C)(C)O in this test?
Ans. active

----------
# Experimental system: Retinaldehyde dehydrogenase 3 (Homo sapiens)
# Method: qHTS for Inhibitors of the Aldehyde Dehydrogenase Family (ALDH1A3) Primary screen (AID 2061315);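 also: plate controls were DMSO vehicle for no effect and reference inhibitor for full effect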
# Experimental setup: ALDH inhibition qHTS; series mostly up to 56 µM
Records with an inconclusive call do not appear. Activity calls are given as the source filed them. The call rests on the fitted dose curve; in most records, active means well fitted inhibition curve with a large enough effect; inconclusive means small, poorly fitted or top-dose-only effect; inactive means no such curve, though single readings can be large or run the other way.
Quantity measured: activity change, negative = inhibition

See these solved cases before continuing.
1. Cc1sc2c(c1C)C(c1ccc(Cl)cc1)=N[C@H](CC(=O)NCCCCNC(=O)COc1cccc3c1C(=O)N([C@H]1CCC(=O)NC1=O)C3=O)c1nnc(C)n1-2    inactive
2. CO/N=C(/C(=O)N[C@@H]1C(=O)N2C(C(=O)O)=C(CSC(=O)c3ccco3)CS[C@H]12)c1csc(N)n1    inactive
3. C=CC(C)(O)CC/C=C(\C)C(=O)OC1CC2(C(=O)O)CCC3(C)C(=CCC4C5(C)CCC(OC6OC(COC7OCC(O)C(O)C7O)C(O)C(OC7OCC(O)C(O)C7O)C6OC6OC(CO)C(O)C(O)C6OC6OCC(O)C(O)C6O)C(C)(C)C5CCC43C)C2CC1(C)C (stereo unspecified)    -4.78% [at 11.2 µM] (inactive)
4. Cc1cccc2c1NC(=O)C2(c1ccc(O)cc1)c1ccc(O)cc1    inactive
5. CC(C)C[C@H](CC(=O)NO)C(=O)N[C@H](C(=O)N[C@@H](C)C(=O)NCCN)C(C)(C)C    -12.1% [at 11.2 µM] (inactive)

Note to self: activity change, negative = inhibition recorded for Cc1ccc(OCCn2c(CCNC(=O)c3cccc(N)c3)nc3ccccc32)cc1 was inactive

Note to self: activity change, negative = inhibition recorded for COc1cc(Nc2c(C#N)cnc3cc(OCCCN4CCN(C)CC4)c(OC)cc23)c(Cl)cc1Cl was inactive

Note to self: activity change, negative = inhibition recorded for O=C(Cc1c(F)cccc1F)Nc1cc(OCc2ccc(Cl)cc2)ccn1 was inactive
